The following compounds are listed with their measured MIC50 values.
- Test system: Cryptococcus albidosimilis
- method.description: Antimicrobial activity against Cryptococcus albidosimilis by broth microdilution method
- Type: functional
- experimental.parameters: Naganishia albidosimilis
Numbers only here, please. The scale is µg/mL.

compound	value.unit	MIC50
CCC(C)n1ncn(-c2ccc(N3CCN(c4ccc(OCC5COC(Cn6cncn6)(c6ccc(Cl)cc6Cl)O5)cc4)CC3)cc2)c1=O (centres undefined)	µg/mL	0.063
C[C@@H](c1ncncc1F)[C@](O)(Cn1cncn1)c1ccc(F)cc1F	µg/mL	0.063
Nc1nc(=O)[nH]cc1F	µg/mL	4

Give MIC50 for the following compound: C[C@@H]1[C@H](O)[C@@H](C)/C=C/C=C/C=C/C=C/C=C/C=C/C=C/[C@H](O[C@@H]2O[C@H](C)[C@@H](O)[C@H](N)[C@@H]2O)C[C@@H]2O[C@](O)(C[C@@H](O)C[C@@H](O)[C@H](O)CC[C@@H](O)C[C@@H](O)CC(=O)O[C@H]1C)C[C@H](O)[C@H]2C(=O)O 0.25
